Biological target: Ubiquitin-activating enzyme e1, putative (Leishmania donovani (strain BPK282A1)) (UniProt E9BSI1)
Sequence (E9BSI1 as listed by the source): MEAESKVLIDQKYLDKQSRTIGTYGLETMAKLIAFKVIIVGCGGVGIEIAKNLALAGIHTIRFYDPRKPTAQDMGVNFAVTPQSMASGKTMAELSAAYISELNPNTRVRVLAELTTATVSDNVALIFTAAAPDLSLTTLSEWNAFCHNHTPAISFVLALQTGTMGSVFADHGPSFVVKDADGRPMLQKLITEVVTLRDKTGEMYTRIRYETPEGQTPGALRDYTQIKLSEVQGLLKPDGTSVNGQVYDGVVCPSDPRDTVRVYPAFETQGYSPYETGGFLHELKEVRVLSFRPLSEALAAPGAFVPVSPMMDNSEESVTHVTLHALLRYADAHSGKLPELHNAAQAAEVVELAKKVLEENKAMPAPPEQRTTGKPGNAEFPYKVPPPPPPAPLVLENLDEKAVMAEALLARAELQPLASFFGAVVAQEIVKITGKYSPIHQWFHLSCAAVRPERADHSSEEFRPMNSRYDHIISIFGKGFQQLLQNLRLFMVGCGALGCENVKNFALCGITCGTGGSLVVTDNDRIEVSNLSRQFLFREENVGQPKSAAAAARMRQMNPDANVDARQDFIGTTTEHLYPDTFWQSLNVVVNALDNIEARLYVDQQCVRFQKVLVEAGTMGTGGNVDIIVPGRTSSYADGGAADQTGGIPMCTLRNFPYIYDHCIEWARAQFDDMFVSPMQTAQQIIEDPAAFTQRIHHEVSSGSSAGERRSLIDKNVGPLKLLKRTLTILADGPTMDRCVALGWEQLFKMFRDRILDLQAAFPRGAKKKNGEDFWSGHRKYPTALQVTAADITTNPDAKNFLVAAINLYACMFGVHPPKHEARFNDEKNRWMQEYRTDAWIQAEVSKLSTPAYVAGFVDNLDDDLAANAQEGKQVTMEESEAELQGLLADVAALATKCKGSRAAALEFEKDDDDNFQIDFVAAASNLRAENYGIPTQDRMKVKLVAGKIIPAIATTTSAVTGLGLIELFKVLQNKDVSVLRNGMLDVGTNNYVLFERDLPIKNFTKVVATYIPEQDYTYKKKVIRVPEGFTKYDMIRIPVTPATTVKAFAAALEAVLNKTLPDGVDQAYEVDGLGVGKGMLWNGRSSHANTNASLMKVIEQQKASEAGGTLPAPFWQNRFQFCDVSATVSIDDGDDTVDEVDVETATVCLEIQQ
Test: Leishmania donovani Ubiquitin Activating Enzyme (LdE1)
Type: functional
Set-up: scale not given: direction of the effect not stated beside the values
Settings: 30 µM
Entries with a potency or affinity are not part of this list.
Readout Name: Percent Effect (%)
Numeric only. Scale: %

These solved cases illustrate the format of a correct answer.
{"Molecule": "CC(C(=O)N1CCCN(c2ncccc2C#N)CC1)n1cccn1 (centres undefined)", "Percent Effect / %": 10.5}
{"Molecule": "CC(NC(=O)N1CCCN(Cc2cccs2)CC1)c1cccnc1 (centres undefined)", "Percent Effect / %": 18.4}
{"Molecule": "Cn1cc(CCC(=O)N2C[C@H]3CC[C@@H]2CN(Cc2ccccc2)C3)cn1", "Percent Effect / %": 4.17}

Could you now consider this next molecule?
Ask | Look up Percent Effect: CCc1ncnc2c1CCN(Cc1ccccn1)CC2
Reply | -1.33

* * *

Target: Chromo domain-containing protein 1 (Saccharomyces cerevisiae (strain ATCC 204508 / S288c) (Baker's yeast))
Test: ScCHD-1 Enzyme Inhibition Assay; note: in the data most compounds retested in dose-response had high values
Type: functional
Design: scale not given: direction of the effect not stated beside the values
Details: 30 µM
Readout Name: Percent Effect (%)
The response must be a number in % with no trailing unit.

Some compounds with recorded Percent Effect:
{"Compound": "Cc1cccc2nc(C(=O)N3CCC(Nc4cccnn4)CC3)cn12", "Percent Effect, %": -18.7}
{"Compound": "COc1ccc(OC)c(-c2nc(CN(C)Cc3nncn3C)c(C)o2)c1", "Percent Effect, %": -5.1}
{"Compound": "CCc1nccn1C1CCCN(C(=O)c2cn3c(C)cccc3n2)C1 (centres undefined)", "Percent Effect, %": -1.12}
{"Compound": "Cc1cccc(NC(=O)[C@@H]2CCCN2CC(=O)N2CCCCCC2)n1", "Percent Effect, %": -6.64}
{"Compound": "Cc1ccc2oc(C(=O)N3CCc4nnc(N(C)C)cc4C3)cc2n1", "Percent Effect, %": -10.7}

Ask | Sample Cc1csc(N2CCCN(C(=O)c3cnns3)CC2)n1 — what was its Percent Effect?
Reply | 4.48

Ask | Report Percent Effect for CCc1noc(C(C)N(C)CC(=O)Nc2c(C)cccc2C)n1 (centres undefined) please.
Reply | -7.1

Ask | Fill blank: measured Percent Effect of the compound c1cnnc(N2CCCC2CNCc2nc(-c3ccsc3)no2)c1 (centres undefined) is ____.
Reply | -1.74

Ask | Which Percent Effect value is on record for Clc1ccccc1C1(c2ccnc(-c3ccncc3)n2)CCNCC1 ?
Reply | 2.54

Ask | Could you share which Percent Effect value was measured for CN(C(=O)Cc1c[nH]c2ccccc12)C1CCN(c2ccccn2)CC1 ?
Reply | -14.4

Ask | Quick one: Percent Effect of COc1ccc(C2CC(=O)Oc3cc(C)[nH]c(=O)c32)cc1 (centres undefined) ?
Reply | -1.69

Ask | May I ask what Percent Effect has been recorded for Cc1ncc2c(n1)CN(Cc1nnc(-c3occc3C)o1)CC2 ?
Reply | -8.36

* * *

Test system: Trypanosoma cruzi
Assay: Trypanosoma cruzi phosphomannomutase and mannose-1-phosphate guanylyltransferase assay
Type: functional
Set-up: scale not given: direction of the effect not stated beside the values
Settings: 10 µM
Readout Name: Percent Effect
Respond with the figure and its unit, in that order.

Ask | Request - read-out Percent Effect | tested on Trypanosoma cruzi | molecule CC[C@H](C)[C@H](NC(=O)Cc1csc(-c2cccc(Cl)c2)n1)C(=O)O
Reply | 0.982%
